For each entry below, report its IC50 value.
Target: CDK2 (Homo sapiens, UniProt P24941)
Construct: High-Throughput Measurement of Cellular Endogenous CDK2; endogenous in cells
Assay: Inhibition of CDK2: phospho-Rb (S807/811) HTRF measurement in OVCAR3 cells, 24 h
Details: 24 h compound treatment, read-out: pRB_OVCAR3_24h
Method: Inhibition of CDK2: Phospho-R^b Measurement in Cells Phosphorylation of RB protein at S807/811 were measured using HTRF phospho-RB cellular kits (Cat #64RBS807PEG) from Cisbio. On Day 1, OVCAR3 (CDK2 dependent cell line) cells were seeded into 96-well tissue-culture treated plates at 20,000 cells/well in 200 μL and incubated overnight at 37° C. in CO2 atmosphere. […] Detection plates were incubated for 4 h at room temperature and read on ClarioStar (BMG Labtech) in TR-FRET mode (665 nM and 620 nM). […]

See these solved cases before continuing.
Cn1nc(N2CCC(=O)NC2=O)c2ccc(C3CCN(CC4CCN(c5cccc(S(=O)(=O)N6CCC(Nc7ncc(OC(F)F)cn7)CC6)c5)CC4)CC3)cc21: 1 to 100 nM
Cn1nc(N2CCC(=O)NC2=O)c2cc(F)c(C3CCN(CC4CCN(c5cc(S(=O)(=O)N6CCC(Nc7ncc(Cl)cn7)CC6)ccc5C#N)CC4)CC3)cc21: 1 to 100 nM
CC(C)Oc1cnc(NC2CCN(S(=O)(=O)c3cccc(N4CCC(CN5CCC(c6ccc7c(N8CCC(=O)NC8=O)nn(C)c7c6)CC5)CC4)c3)CC2)nc1: > 2500 nM

Provide reported IC50 for each item, in the same order as listed.
1. O=C1CCC(N2Cc3cc(N4CCN(CC5CCN(c6cccc(S(=O)(=O)N7CCC(Nc8ncc(Cl)cn8)CC7)c6)CC5)CC4)ccc3C2=O)C(=O)N1 (centres unmarked)
2. CC(C)c1cnc(NC2CCN(S(=O)(=O)c3cccc(N4CCC(CN5CCC(c6ccc7c(N8CCC(=O)NC8=O)nn(C)c7c6)CC5)CC4)c3)CC2)nc1
3. Cn1nc(N2CCC(=O)NC2=O)c2ccc(C3CCN(CC4CCN(c5cccc(S(=O)(=O)N6CCC(Nc7ncc(C(F)(F)F)cn7)CC6)c5)CC4)CC3)c(Cl)c21
4. N#Cc1ccc(S(=O)(=O)N2CCC(Nc3ncc(Cl)cn3)CC2)cc1N1CCC(CN2CCN(c3cc4c(cc3F)C(=O)N(C3CCC(=O)NC3=O)C4=O)CC2)CC1 (centres unmarked)

Found:
1: 100 to 500 nM; 2: 1 to 100 nM; 3: 1 to 100 nM; 4: 500 to 2500 nM

For every listed record, write down its IC50.
1. Cn1nc(N2CCC(=O)NC2=O)c2ccc(C3CCN(C[C@H]4CCCCN4c4cccc(S(=O)(=O)N5CCC(Nc6ncc(OC(F)F)cn6)CC5)c4)CC3)cc21
2. Cn1nc(N2CCC(=O)NC2=O)c2ccc(C3CCN(CC4CCN(c5ccc(F)c(S(=O)(=O)N6CCC(Nc7ncc(Cl)cn7)CC6)c5)CC4)CC3)cc21
3. Cn1nc(N2CCC(=O)NC2=O)c2ncc(C3CCN(CC4CCN(c5cccc(S(=O)(=O)N6CCC(Nc7ncc(C(F)(F)F)cn7)CC6)c5)CC4)CC3)cc21
4. Cn1nc(N2CCC(=O)NC2=O)c2ccc(C3CCN(Cc4cnn(-c5cccc(S(=O)(=O)N6CCC(Nc7ncc(Cl)cn7)CC6)c5)c4)CC3)cc21

Found:
100 to 500 nM
> 2500 nM
500 to 2500 nM
1 to 100 nM
